- test target: T1, ProQ (Escherichia coli, UniProt P45577 1-232)
- T1 sequence: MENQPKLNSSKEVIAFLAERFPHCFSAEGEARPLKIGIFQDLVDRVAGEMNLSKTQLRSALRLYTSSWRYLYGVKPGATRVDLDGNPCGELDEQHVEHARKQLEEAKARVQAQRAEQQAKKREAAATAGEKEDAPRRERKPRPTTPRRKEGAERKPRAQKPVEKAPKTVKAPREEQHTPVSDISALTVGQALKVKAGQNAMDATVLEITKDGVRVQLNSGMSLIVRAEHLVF
- assay notes: EMSA; 25 mM Tris-HCl pH 7.5, 150 mM NaCl, 5% glycerol, 1 mM MgCl2, 1 nM 32P-RNA, 30 min at room temperature; native 6% PAGE in 0.5x TBE at 4 C
- applied conditions: protein: recombinant; tags: pET-15b construct; label: 32P; terminator hairpin; 5' A4 paired with first four U of U8 tail
value kind: pKd
Note: pKd values are expressed as the negative base-10 logarithm of concentration in M.

(Q) Need pKd, item cspE81-3' (structured_RNA) RNA: GGCCCUUCUGCUGCAAACGUAAUCGCUCUGUAAGAUACGUCAGCAAGAAUUCAAAACCCGCUUAAUCAGCGGGUUUUUUUU
(A) 7.43
